Data origin, for the record: patent US20210139581A1

# target.entity: T1, human CD33 (human, UniProt P20138 18-259, limits assumed)
# T1 construct: Human CD33 immobilized on the BLI sensor tip or the BIAcore C1 chip; also called Siglec-3
# test.details: SPR (BIAcore), Fab over CD33 on C1 chip
property.name: kon (M⁻¹ s⁻¹)
Please respond with the number in M⁻¹ s⁻¹ and leave the unit unwritten.

AB-H26 (antibody, V domains shown, Humanized variant of murine 2F5.1; also called AB-26) VH: QVQLVQSGAEVKKPGASVKVSCKASGYTFTDYNLHWVRQAPGQRLEWIGFIYPSNGITGYSQKFQGRATLTVDTSASTAYMELSSLRSEDTAVYYCARSTVDYFDYWGQGTTVTVSS VL: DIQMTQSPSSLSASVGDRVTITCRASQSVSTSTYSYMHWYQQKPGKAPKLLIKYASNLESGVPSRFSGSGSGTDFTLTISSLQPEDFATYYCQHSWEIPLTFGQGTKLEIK :: 400000
AB-H71 (antibody, V domains shown, Humanized variant of murine 2F5.1; also called AB-71) VH: QVQLVQSGAELKKPGASVKVSCKASGYTFTDYNLHWVRQAPGQRLEWIGFIYPSNGITGYSQKFQGKATLTVDTSASTAYMELSSLRSEDTAVYYCARSTVDYFDYWGQGTTVTVSS VL: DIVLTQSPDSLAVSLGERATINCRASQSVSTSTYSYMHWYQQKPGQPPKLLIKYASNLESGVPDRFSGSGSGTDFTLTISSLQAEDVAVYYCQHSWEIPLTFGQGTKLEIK :: 1.87e+06

Continue with the binder presented below.
The binder listed as Chimeric Ab (antibody, V domains shown, Chimeric antibody with the variable regions of murine 2F5.1; also called parental antibody; comparator antibody) VH: EVQLQQSGPELVKPGASVKISCKASGYTFTDYNLHWVKLSHGKSLEWIGFIYPSNGITGYNQKFKNKATLTVDNSSSTAYMELRSLTSEDSAVYYCARSTVDYFDYWGQGTTLTVSS VL: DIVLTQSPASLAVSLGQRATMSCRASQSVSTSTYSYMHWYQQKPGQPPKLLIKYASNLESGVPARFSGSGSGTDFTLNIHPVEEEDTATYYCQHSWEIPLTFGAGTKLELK shows kon equal to 995000
